Target: p38β (Homo sapiens)
Sequence (Q15759 whole entry): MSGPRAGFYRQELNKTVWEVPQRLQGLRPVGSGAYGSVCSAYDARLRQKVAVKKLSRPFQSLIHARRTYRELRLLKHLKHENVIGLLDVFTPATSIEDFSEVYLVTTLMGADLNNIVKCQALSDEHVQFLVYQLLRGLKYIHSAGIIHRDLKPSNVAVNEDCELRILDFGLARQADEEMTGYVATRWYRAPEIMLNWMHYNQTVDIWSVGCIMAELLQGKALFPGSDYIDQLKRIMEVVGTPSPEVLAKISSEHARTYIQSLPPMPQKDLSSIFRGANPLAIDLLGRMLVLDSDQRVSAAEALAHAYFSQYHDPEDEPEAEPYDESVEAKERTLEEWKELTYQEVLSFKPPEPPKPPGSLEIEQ
Experiment: In vitro inhibition of p38 kinase (LANCE Ultra TR-FRET)
Assay type: biochemical
Settings: read-out: Kinase in vitro IC50(nM) p38β
Reported IC50 values are given for each entry in this list.

Look over these answered cases.
# Compound, IC50
records = [
    ("O=c1ncn2nc(Oc3ccc(Cl)cc3)ccc2c1-c1c(Cl)cccc1Cl", "470 nM"),
    ("O=c1ncn2nc(OC3CCCC=C3Cl)ccc2c1-c1c(Cl)cccc1Cl (centres unmarked)", "686 nM"),
    ("O=c1ncn2nc(OC3C=CCCC3)ccc2c1-c1c(Cl)cccc1Cl (centres unmarked)", "2830 nM"),
    ("CNC(=O)c1ccc(Cl)c(-c2c(=O)ncn3nc(Oc4ccc(F)cc4F)ccc23)c1", "256 nM"),
    ("COc1ccc(Oc2ccc3c(-c4c(Cl)cccc4Cl)c(=O)ncn3n2)c(Cl)c1", "301 nM"),
]

Entry `O=c1ncn2nc(Oc3ccc(F)cc3F)ccc2c1-c1cc(Cl)ccc1Cl` ; IC50 = 403 nM

Entry `CCOc1ccc2c(-c3c(Cl)cccc3Cl)c(=O)ncn2n1` ; IC50 = > 3330 nM

Entry `O=c1ncn2nc(Oc3cc(F)c(F)cc3F)ccc2c1-c1c(Cl)cccc1Cl` ; IC50 = 95.1 nM
